test system: Bacillus subtilis; assay: cleaved RNA product abundance (RNA/gDNA barcode ratio) relative to median wild-type variant (ratio to wild type); higher = more accumulation of the downstream cleavage product; conditions: experiment (reporter, strain, medium): exp 4a: truncated aprE reporter, strain BJT201 with 2% xylose (RNase J1 expressed); cleavage site: cggR-gapA (positions -7 to +36 mutated)
Please enter 1 where cleaved RNA product abundance is greater than or equal to 0.2, and -1 where it is lower.

Consider the worked cases shown below.
> print(dat)
                                   residues  classification
1  ACAGACGAAGGAGCCGCAAAGAAGTTATTAAGGGATGAATCATCTCTCAATATAAATATCTCTCACTTATTTAAA               1
2  ACAGACGAAGGAGCCGCAAAGTAGTTATTAAAGGATGAATAATCCCTCAATATAAATATCTCTCACTTATTTAAA               1
3  ACAGACGAAGGAGCCGCAAAGAAGATATTAAGGAATGAATAATCCCTCAATATAAATATCTCTCACTTATTTAAA              -1
4  ACAGACGAAGGAGCCGCAAAGAAGTTATTAAGGGACGAATAATCCTTCAATATAAATATCTCTCACTTATTTAAA               1
5  ACAGACGAAGGAGCCGCAAAGAAGTGATTAAGGGATGAATAACCCCTCAATATAAATATCTCTCACTTATTTAAA              -1

Qu. Please check the record ACAGACGAAGGAGCCGCAAAGAAGTTATTAAGGGAAGAATAATCCTTCAATATAAATATCTCTCACTTATTTAAA and state if its cleaved RNA product abundance is at or above 0.2.
Ans. -1

Qu. Moving on to the next sequence: ACAGACGAAGGAGCCGCAAAGAAGTTATTATGGGAAGAATAATCCCTCAATATAAATATCTCTCACTTATTTAAA
Ans. 1
